target: human CA-XII (Homo sapiens); construct: purchased Creative BioMart CA12-261H; experiment: Surface Plasmon Resonance (SPR) binding kinetics to recombinant human CA-XII (Biacore 8K, single-cycle kinetics, 1:1 binding model); conditions: Chelated Metal: Lu-175, 25° C., pH 7.4, read-out: CAXII KD
Sequence (O43570 25-354): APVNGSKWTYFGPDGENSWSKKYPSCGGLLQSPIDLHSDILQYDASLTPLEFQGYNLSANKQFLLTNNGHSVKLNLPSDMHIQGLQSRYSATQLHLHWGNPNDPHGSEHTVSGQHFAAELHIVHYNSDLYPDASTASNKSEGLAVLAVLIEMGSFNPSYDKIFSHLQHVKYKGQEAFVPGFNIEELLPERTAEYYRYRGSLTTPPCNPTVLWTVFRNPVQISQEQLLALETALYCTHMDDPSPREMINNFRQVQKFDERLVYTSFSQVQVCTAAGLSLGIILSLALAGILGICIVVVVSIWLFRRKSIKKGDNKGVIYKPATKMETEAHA
The reader will find reported Kd values listed item by item below.

structure_smiles: NS(=O)(=O)c1nnc(NC(=O)C23CC(c4cn(CCNC(=O)[C@@H]5CN(C(=O)CN6CCN(CC(=O)O)CCN(CC(=O)O)CCN(CC(=O)O)CC6)CCN5C(=O)C[C@H](NC(=O)C[C@H](NC(=O)c5coc(C6CC6)n5)C(=O)O)C(=O)O)nn4)(C2)C3)s1.[Lu+3]
Kd: 0.0025 to 0.01 µM

structure_smiles: NS(=O)(=O)c1nnc(NC(=O)C23CC(c4cn(CCNC(=O)[C@@H]5CN(C(=O)CN6CCN(CC(=O)O)CCN(CC(=O)O)CCN(CC(=O)O)CC6)CCN5C(=O)CNC(=O)C5(C(=O)O)CCN(C(=O)CCc6n[nH]c7ccccc67)CC5)nn4)(C2)C3)s1.[Lu+3]
Kd: > 0.01 µM

structure_smiles: NS(=O)(=O)c1nnc(NC(=O)C23CC(c4cn(CCNC(=O)[C@@H]5CN(C(=O)CN6CCN(CC(=O)O)CCN(CC(=O)O)CCN(CC(=O)O)CC6)CCN5C(=O)C[C@H](NC(=O)C[C@H](NCC5CC5)C(=O)O)C(=O)O)nn4)(C2)C3)s1.[Lu+3]
Kd: > 0.01 µM

structure_smiles: NS(=O)(=O)c1nnc(CC(=O)C23CC(c4cn(CCNC(=O)[C@H]5COCCN5C(=O)CC[C@H](NC(=O)[C@H](CCCCNC(=O)CN5CCN(CC(=O)O)CCN(CC(=O)O)CCN(CC(=O)O)CC5)NC(=O)CCC5CCCCC5)C(=O)O)nn4)(C2)C3)s1.[Lu+3]
Kd: > 0.01 µM
